The origin of these recorded values is ChEMBL document CHEMBL4813981.

Quick list: MIC per entry.
Test system: Klebsiella pneumoniae
testDescription: Antibacterial activity against Klebsiella pneumoniae ATCC BAA-1705 assessed as reduction in bacterial growth
Assay type: functional
Field: numeric (µg/mL). Do not append units.

Recorded MIC, per entry:
compound: CC(C)(O/N=C(\C(=O)N[C@@H]1C(=O)N2C(C(=O)[O-])=C(C[n+]3ccccc3)CS[C@H]12)c1csc(N)n1)C(=O)O [CEFTAZIDIME]
recordedMeasurement: 64

compound: C[C@@H](O)[C@H]1C(=O)N2C(C(=O)O)=C(S[C@@H]3CN[C@H](C(=O)N(C)C)C3)[C@H](C)[C@H]12 [MEROPENEM]
recordedMeasurement: 32

compound: Nc1nc(/C(=N/OCc2cc(=O)c(O)cn2O)C(=O)N[C@@H]2C(=O)N3C(C(=O)O)=CCS[C@H]23)cs1
recordedMeasurement: 64

Moving on to the next compound.
Problem: Give the value of MIC reported for the following: "C/C=C/C1=C(C(=O)O)N2C(=O)[C@@H](NC(=O)/C(=N\OCc3cc(=O)c(O)cn3O)c3csc(N)n3)[C@H]2SC1"
Result: 64
